Assay: pKa of unformulated amine lipid by TNS fluorescence
Format: physicochemical
Settings: sodium phosphate buffer; Table 2; unformulated amine lipid, TNS; read-out: Lipid pKa
Description: The pKa of each amine lipid was determined according to the method in Jayaraman, et al. (Angew Chem Int Ed Engl 51(34), 2012, 8529-8533) with the following adaptations. The pKa was determined for unformulated amine lipid in ethanol. […] The test samples were supplemented with TNS {6-(p-Toluidino)-2-naphthalenesulfonic acid sodium salt}, incubated and the fluorescence intensity was measured using excitation and emission wavelengths of 321 nm and 448 nm, respectively. […]
Measured pKa, listed per entry for reference.
valueKind: pKa

{"compound": "CCCCC/C=C\\C/C=C\\CCCCCCCC(=O)OCC(CCCCCCCCC(=O)OC(CCCCCCCC)CCCCCCCCC)COC(=O)CCC(CCCCCCCC)OC(=O)NCCN(C)CC (stereo not drawn)", "recordedValue": 6.1}
{"compound": "CCCCCCCCC(CCCCCCCC)C(=O)OCC(COC(=O)NCCN(CC)CC)COC(=O)C(CCCCCCCC)CCCCCCCC", "recordedValue": 5.97}
{"compound": "CCCCCCCCC(CCCCCCCC)OC(=O)CCCCCC(=O)OCC(CCCCCCCCC(=O)OCC(CCCC)CCCCCC)COC(=O)NCCN(CC)CC (stereo not drawn)", "recordedValue": 6.39}

Cited source: patent US20260337153A1
